- assay-method-text: Metabolic stability in rat liver microsomes assessed as compound remaining after 10 mins
- Type: ADME, Microsome
- measurement-conditions: read-out: Stability
For each record, write down the corresponding remaining at 10 min.
Enter your answer as a number in %; do not include the unit.

Ask: Recorded remaining at 10 min for FC(F)(F)c1cccnc1-c1ccc2[nH]c(/C=C/C3CCCCC3)nc2c1 , please?
Reply: 72

Ask: Using the record for Fc1ccccc1-c1ccc2[nH]c(/C=C/C3CCCCC3)nc2c1 , report its remaining at 10 min.
Reply: 34

Ask: Need remaining at 10 min of CC(=O)N1CCC(/C=C/c2nc3cc(-c4ccccc4C(F)(F)F)ccc3[nH]2)CC1 , thanks.
Reply: 85

Ask: Give its remaining at 10 min value. Item: CC1(/C=C/c2nc3cc(-c4ccccc4C(F)(F)F)ccc3[nH]2)CCC(F)(F)CC1
Reply: 84

Ask: Could you share which remaining at 10 min value was measured for Clc1ccccc1-c1ccc2[nH]c(/C=C/C3CCCCC3)nc2c1 ?
Reply: 39

Ask: Find the recorded remaining at 10 min belonging to FC(F)(F)c1cccc(C(F)(F)F)c1-c1ccc2[nH]c(/C=C/C3CCCCC3)nc2c1 and report it.
Reply: 44

Ask: What value of measured remaining at 10 min is listed for FC(F)(F)c1ccccc1-c1ccc2[nH]c(/C=C/C3CCSCC3)nc2c1 ?
Reply: 6

Ask: # query: remaining at 10 min of entry FC(F)(F)Oc1ccccc1-c1ccc2[nH]c(/C=C/C3CCCCC3)nc2c1
Reply: 91

Ask: Report remaining at 10 min for FC(F)(F)c1ccccc1-c1ccc2[nH]c(/C=C/C3CCCCC3)nc2c1 please.
Reply: 58

These measurements were taken from ChEMBL document CHEMBL1955797.
